Hey, just so you know, these numbers are from PubChem BioAssay AID686979.

Test Summary: qHTS for Inhibitors of human tyrosyl-DNA phosphodiesterase 1 (TDP1): qHTS in cells in presence of CPT; also: nearly all actives have a fitted effect of over 55% in size
Experimental Context: chicken DT40 Tdp1-/-;hTDP1 cells + 20 nM CPT, ATP luminescence, 48 h; series mostly up to 46.2 µM
Screen size: about 420,000 compounds; about 50,000 (12%) were called active. Not shown: some 26% with an inconclusive outcome. Calls follow the shape of the dose curve; as a rule, active = well fitted inhibition curve with a large enough effect; inconclusive = small, poorly fitted or top-dose-only effect; inactive = flat fitted curve, though single readings scatter. Only a selection was taken, and actives are over-represented in it overall.
Respond using exactly one of the listed classes: active, inactive

A selection of reference data follows.
For this compound, state the assay outcome: "COc1cccc(C(=O)Nc2cc3c(cc2Br)OCCCO3)c1"
inactive

Recorded call for "COc1ccc(C(=O)NCCSc2ccccc2C)cc1" ?
inactive

Outcome logged for "CCOC(=O)C1CCN(Cc2ccc(-c3ccccc3)cc2)CC1" in this assay:
inactive

Hi, sorry to bother you, what did the test record for "CCOC(=O)C1CCN(C(=O)COc2cc(C)c(Br)c(C)c2)CC1" ?
inactive

Could you kindly confirm the outcome this assay logged for "O=C(COC(=O)c1ccc([N+](=O)[O-])o1)NC12CC3CC(CC(C3)C1)C2" ?
inactive

Outcome logged for "CCOC(=O)C1CCN(c2ncnc3c2c(-c2ccccc2)cn3-c2cccc(C)c2)CC1" in this assay:
active

Others:
Status in this test for "CCOC(=O)C1CCN(c2ncnc3c2c(-c2ccccc2)cn3-c2ccc(C)cc2)CC1" ?
active

Please let me know the test result on file for "O=C(Cn1cnc2c(oc3ccccc32)c1=O)Nc1ccc(OC(F)(F)F)cc1" .
inactive

Could you please tell me the result logged for "COC1=C/C(=C/c2c(N)n3nc(CC(=O)N4CCOCC4)sc3nc2=O)C=CC1=O" in this assay?
inactive

Status in this test for "CN(C)c1ccc(S(=O)(=O)NCC(=O)NCC2CCCCC2)cc1[N+](=O)[O-]" ?
inactive

----------
Test Summary: qHTS for Inhibitors of human tyrosyl-DNA phosphodiesterase 1 (TDP1): qHTS in cells in presence of CPT; also: nearly all actives have a fitted effect of over 55% in size
Experimental Context: chicken DT40 Tdp1-/-;hTDP1 cells + 20 nM CPT, ATP luminescence, 48 h; series mostly up to 46.2 µM
Among all 420,000 compounds or so, about 50,000 (12%) were called active. Inconclusive results (about 26%) are left out. Calls come from the whole dose curve; as a rule, active = well fitted inhibition curve with a large enough effect; inconclusive = small, poorly fitted or top-dose-only effect; inactive = flat fitted curve, though single readings scatter. Only a selection was taken, and actives are over-represented in it overall.
Give one outcome, nothing more. List: active, inactive

Lab log entry: "NC(N)=N/N=C/c1ccc(OCc2ccc(Cl)cc2Cl)cc1" — outcome as called in the assay?
active

I would be grateful if you could indicate the recorded call for NCCCCC(C(=O)O)N(C(=O)OCc1ccccc1)C(=O)OCc1ccccc1 (configuration not stated) .
inactive

Any idea what this test logged for "CCN1CCN(CCCNC(=O)c2ccc3c(c2)sc2nc(-c4ccc(OC)cc4)cn23)CC1" ?
active

# fetch the recorded call for "COc1ccc(C(=O)NCCCN2CCOCC2)cc1Br" here
inactive

Given "COc1ccc(OCc2ccc(-c3nc(C#N)c(N4CCN(c5ccccc5)CC4)o3)o2)cc1" , state the outcome it received in this test.
inactive

What was the test verdict on "Cc1oc2c(C)c3oc(=O)c(CC(=O)N[C@@H](CC(C)C)C(=O)N[C@@H](Cc4ccccc4)C(=O)O)c(C)c3cc2c1C" ?
inactive

New cases:
// param item: "COc1ccc(Cl)cc1N(CC(=O)N/N=C/c1ccc(OCC(N)=O)cc1)S(C)(=O)=O" ; yields the recorded call
inactive
